Kindly find below IC50 information for ROCK2 (Homo sapiens) taken from the literature.
quantity_measured: IC50 (nM)

• NC(=O)c1cccnc1O[C@H]1C[C@]2(C1)C[C@H](N1C(=O)NC3(CCC3)C1=O)C2 (stereo partly shown) = 902
• Cc1c(C(=O)N[C@H]2C[C@]3(C2)C[C@H](Oc2nc4c(cnn4C)cc2C(N)=O)C3)cnn1-c1ccc(S(C)(=O)=O)cc1 (stereo partly shown) = 7.1
• COc1cc(C(=O)NC(CN)c2cccc(OC)c2)cc(-c2ccc3[nH]nc(F)c3c2)c1 (stereo not shown) = 20

###

Kindly find below IC50 information for UniProt O75116 taken from the literature.
quantity_measured: IC50

* O=C(NC1CC2(C1)CC(c1n[nH]c(=O)c3ccccc13)C2)N1CCc2cc(-c3cnn(CC4CC4)c3)ccc21 (stereo not shown) | 2.01 to 5 nM
* CN(C(=O)c1cc2ccc(-c3nccc(Nc4ccc(-c5cn[nH]c5)cc4)n3)cc2[nH]1)C1CCOC1 (stereo not shown) | 385 nM
* NC(=O)c1cccnc1O[C@H]1C[C@@]2(C[C@H](Nc3nc4ccc(Cl)cc4s3)C2)C1 (stereo partly shown) | 268 nM
* COc1cc(N2CCC3(CCN(C(=O)c4ccc(C5CC5)cc4)CC3)C2=O)ccc1-c1cn[nH]c1 | 10 nM
* COc1cccc(-n2cc(C(=O)NC3CC4(C3)CC(c3n[nH]c(=O)c5ccccc35)C4)cn2)c1 (stereo not shown) | 2.01 to 5 nM
* CNc1cc(C(=O)N[C@H](C)c2ccc(F)cc2)ccc1-c1cn[nH]c1 | 518 nM
* CC(C)(O)c1nn(-c2ccc(-c3cn[nH]c3)cc2)c(=O)n1Cc1c(F)cccc1F | 50 to 250 nM
* NC(=O)c1cccnc1Oc1ccc(CC(=O)Nc2nc(-c3cccc4oc(=O)ccc34)cs2)cc1 | 506 nM
* O=C(NC1CC2(C1)CC(c1n[nH]c(=O)c3ccccc13)C2)c1cnn2cc(CCC(F)(F)F)ccc12 (stereo not shown) | 0.2 to 2 nM
* COc1cc(F)cc(CN2CCN(c3ccc(-c4cn[nH]c4)nc3)C2=O)c1 | 20.1 to 200 nM
* COCc1ccc2c(C(=O)NC3CC4(C3)CC(c3n[nH]c(=O)c5ccccc35)C4)cnn2c1 (stereo not shown) | 5.1 to 15 nM
* O=C(NC1CC2(C1)CC(c1n[nH]c(=O)c3ccccc13)C2)c1cnn2cc(-n3ccnc3)ccc12 (stereo not shown) | 5.1 to 15 nM
* O=C(NCCc1ccc(Cl)cc1)Nc1ccc2c(c1)OCc1cnccc1-2 | 971 nM
* COc1cccc(CN2CCN(c3ccc4c(n3)OCc3n[nH]cc3-4)C2=O)c1 | < 10 nM
* O=C(C1CC2(C1)CC(c1n[nH]c(=O)c3ccccc13)C2)N1CCc2ccccc21 (stereo not shown) | 100 to 2100 nM
* CCc1nc(N2CC3(CCN(C(C)=O)CC3)N(Cc3cc(F)cc(OC)c3)C2=O)ccc1-c1cn[nH]c1 | < 3 nM

###

Kindly find below pIC50 information for ROCK2 (Homo sapiens, UniProt O75116) taken from the literature.
pIC50: −log10 of the molar value.
quantity_measured: pIC50

* CN1CCN(c2ccc(C(=O)N3CCC4(CC3)CCN(c3ccc(-c5ccc6nn[nH]c6c5)cc3)C4=O)cc2)CC1 | 6.94
* CN(C)c1cnccc1NC(=O)c1cc2ccc(-c3nccc(Nc4ccc5[nH]ncc5c4)n3)cc2[nH]1 | 7.14
* COc1cc(-c2cn[nH]c2)ccc1C(=O)N[C@@H](c1ccccc1)[C@H](O)CO | 8.96
* CC(C)(O)COc1ccc2c(C(=O)NC3CC4(C3)CC(c3c[nH]c(=O)c5ccccc35)C4)cnn2c1 (stereo not shown) | 8.30 to 8.70
* COc1nc(N2CC3(CCN(C(=O)CN(C)C)CC3)N(Cc3cccc(F)c3C)C2=O)ccc1-c1cn[nH]c1 | > 8.52
* COc1ccc(Cn2cc(C(=O)NC3CC4(C3)CC(c3n[nH]c(=O)c5ccccc35)C4)cn2)cc1 (stereo not shown) | 7.82 to 8.29
* COc1cc(C(=O)NCc2ccc(Oc3ccccc3)cc2Cl)ccc1-c1cn[nH]c1 | 5.88
* O=C1N(c2ccc(-c3cn[nH]c3)cc2)CC2(CCOCC2)N1Cc1cccc(Cl)c1 | 7.52 to 8.52
* COc1cc(F)cc(C(C)NC(=O)N2CCc3cc(-c4cn[nH]c4)c(F)cc32)c1 (stereo not shown) | ≥ 7.30
* COc1cccc(CN2C(=O)N(c3ccc(-c4cn[nH]c4)cn3)CC23CCNCC3)c1 | 7.52 to 8.52
* CCc1nc(N2CC3(CCN(C(=O)CO)CC3)N(Cc3cccc(OC)c3)C2=O)ccc1-c1cn[nH]c1 | > 8.52
* COc1cc(N2CCC3(CCN(C(=O)C4CCN(c5ncccn5)CC4)CC3)C2=O)ccc1-c1cn[nH]c1 | 5.91
* CCCOC(=O)c1ccc(C(=O)Nc2cccc(CN3CCC(Nc4cccc5cnccc45)C3)c2)cc1 (stereo not shown) | > 7.00
* Cc1cncc2sc(NC(=O)C3CC3c3ccccc3)cc12 (stereo not shown) | 7.27
* Cn1ccc(NC2CCN(c3ccc(-c4n[nH]c(=O)c5ccccc45)cc3)C2=O)n1 (stereo not shown) | 6.30 to 7.00
* Cn1cc(C(=O)Nc2cc(-n3nc(Nc4ccc5[nH]ncc5c4Cl)c4ccccc43)ccc2F)cn1 | > 6.52
